Tested on: RAW264.7 cells
EXPERIMENT_SUMMARY: NO production inhibition test (LPS, Griess Method)
Format: cell-based, mouse
CONDITION_INFO: 3 μg/mL
READOUT: NO in supernatant

Would you please look over these solved cases?
CCC[C@H](O)CC(=O)CCc1ccc(O)c(OC)c1 [Example 4-gingerol, 4-gingerol] ... 5.10 ± 0.24 µM
CCCCC/C=C/C(=O)CCc1ccc(O)c(OC)c1 [Example 6-shogaol, 6-shogaol] ... 3.60 ± 0.29 µM
CCCCCCCCC/C=C/C(=O)CCc1ccc(O)c(OC)c1 [Example 10-shogaol, 10-shogaol] ... 2.88 ± 0.11 µM
CCCCCCCCC[C@H](O)CC(=O)CCc1ccc(O)c(OC)c1 [Example 10-gingerol, 10-gingerol] ... 4.32 ± 0.16 µM

Req: What NO in supernatant value was documented for this compound, CCCCCCC[C@H](O)CC(=O)CCc1ccc(O)c(OC)c1 [Example 8-gingerol, 8-gingerol] ?
Resp: 4.06 ± 0.24 µM

Req: Name the reported NO in supernatant value associated with the compound CCCCC[C@H](O)CC(=O)CCc1ccc(O)c(OC)c1 [Example 6-gingerol, 6-gingerol]
Resp: 3.66 ± 0.33 µM

The values you see were collected from patent US8017162B2.
